Tested on: Staphylococcus aureus H7
protocol-notes: MIC / antibiotic susceptibility; note: key: R: strain resistant to antibiotic concerned; S: strain sensitive to antibiotic concerned; L strain with intermediate resistance to antibiotic concerned
Format: cell-based
readout-kind: Susceptibility of strain to antibiotic

CC1COc2c(N3CCN(C)CC3)c(F)cc3c(=O)c(C(=O)O)cn1c23 (stereo not shown): R
C[C@H]1c2cccc(O)c2C(O)=C2C(=O)[C@]3(O)C(O)=C(C(N)=O)C(=O)[C@@H](N(C)C)[C@@H]3[C@@H](O)[C@@H]21: S
Cc1onc(-c2ccccc2)c1C(=O)N[C@@H]1C(=O)N2[C@@H]1SC(C)(C)[C@@H]2C(=O)O: S
C[C@@H]1O[C@@H]1P(=O)(O)O: S
CCN1CCN(C(=O)N[C@@H](C(=O)N[C@@H]2C(=O)N3[C@@H]2SC(C)(C)[C@@H]3C(=O)O)c2ccccc2)C(=O)C1=O: R
CC1(C)S[C@@H]2[C@H](NC(=O)[C@H](N)c3ccc(O)cc3)C(=O)N2[C@H]1C(=O)O: R

q: Report Susceptibility of strain to antibiotic for `Cc1nnc(SCC2=C(C(=O)O)N3C(=O)[C@@H](NC(=O)Cn4cnnn4)[C@H]3SC2)s1` please.
a: S

* * *

Tested on: Staphylococcus aureus H4
protocol-notes: MIC / antibiotic susceptibility; note: key: R: strain resistant to antibiotic concerned; S: strain sensitive to antibiotic concerned; L strain with intermediate resistance to antibiotic concerned
Type: cell-based
readout-kind: Susceptibility of strain to antibiotic

CC1(C)S[C@@H]2[C@H](NC(=O)[C@H](N)c3ccc(O)cc3)C(=O)N2[C@H]1C(=O)O [Amoxicillin]: R
CC1COc2c(N3CCN(C)CC3)c(F)cc3c(=O)c(C(=O)O)cn1c23 (stereo not shown) [Ofloxacin]: R
CN(C)[C@@H]1C(O)=C(C(N)=O)C(=O)[C@@]2(O)C(O)=C3C(=O)c4c(O)cccc4[C@@](C)(O)[C@H]3C[C@@H]12 [Tetracycline]: S
CO[C@H]1/C=C/O[C@@]2(C)Oc3c(C)c(O)c4c(O)c(c(/C=N/N5CCN(C)CC5)c(O)c4c3C2=O)NC(=O)/C(C)=C\C=C\[C@H](C)[C@H](O)[C@@H](C)[C@@H](O)[C@@H](C)[C@H](OC(C)=O)[C@@H]1C [Rifampicin]: S
CCn1cc(C(=O)O)c(=O)c2cc(F)c(N3CCNCC3)cc21 [Norfloxacin]: R
C[C@@H]1O[C@@H]1P(=O)(O)O [Fosfomycin]: S

q: Entry under review: Cc1nnc(SCC2=C(C(=O)O)N3C(=O)[C@@H](NC(=O)Cn4cnnn4)[C@H]3SC2)s1 [Cefazoline] . Reported Susceptibility of strain to antibiotic?
a: R

* * *

System: Staphylococcus aureus H3
protocol-notes: MIC / antibiotic susceptibility; note: key: R: strain resistant to antibiotic concerned; S: strain sensitive to antibiotic concerned; L strain with intermediate resistance to antibiotic concerned
Format: cell-based
readout-kind: Susceptibility of strain to antibiotic

Cc1nnc(SCC2=C(C(=O)O)N3C(=O)[C@@H](NC(=O)Cn4cnnn4)[C@H]3SC2)s1: S
CCn1cc(C(=O)O)c(=O)c2cc(F)c(N3CCNCC3)cc21: R
Cc1onc(-c2ccccc2)c1C(=O)N[C@@H]1C(=O)N2[C@@H]1SC(C)(C)[C@@H]2C(=O)O: S
NCC[C@H](O)C(=O)N[C@@H]1C[C@H](N)[C@@H](O[C@H]2O[C@H](CN)[C@@H](O)[C@H](O)[C@H]2O)[C@H](O)[C@H]1O[C@H]1O[C@H](CO)[C@@H](O)[C@H](N)[C@H]1O: S
CC1(C)S[C@@H]2[C@H](NC(=O)[C@H](N)c3ccc(O)cc3)C(=O)N2[C@H]1C(=O)O: R

q: Which measured Susceptibility of strain to antibiotic value corresponds to `CC[C@H]1OC(=O)[C@H](C)[C@@H](O[C@H]2C[C@@](C)(OC)[C@@H](O)[C@H](C)O2)[C@H](C)[C@@H](O[C@@H]2O[C@H](C)C[C@H](N(C)C)[C@H]2O)[C@](C)(O)C[C@@H](C)C(=O)[C@H](C)[C@@H](O)[C@]1(C)O` ?
a: R

Taken from patent US20100227935A1.
